# Tested on: Escherichia coli TOP10
# assay: shrunken log2 fold change of peptide-encoding DNA abundance (4.5 h post-induction vs induction); higher = less antimicrobial activity (less host growth inhibition)
# measurement-setup: time post-induction: 4.5 h; library: site-saturation at positions 5, 18, 19, 20
Lab note: anything with shrunken log2 fold change at or over -0.04 counts as label 1; the rest go in label 0.

Q: Quick check: does RRIRIRPPRLPRPRPRPIVIPRP have shrunken log2 fold change greater than or equal to -0.04?
A: label 0

Q: Quick check: does RRIRNRPPRLPRPRPRPPHRPRP have shrunken log2 fold change greater than or equal to -0.04?
A: label 1

Q: Quick check: does RRIRMRPPRLPRPRPRPAHWPRP have shrunken log2 fold change greater than or equal to -0.04?
A: label 1

Q: Quick check: does RRIRARPPRLPRPRPRPNKWPRP have shrunken log2 fold change greater than or equal to -0.04?
A: label 0

###

# Test system: Escherichia coli TOP10
# assay: shrunken log2 fold change of peptide-encoding DNA abundance (4.5 h post-induction vs induction); higher = less antimicrobial activity (less host growth inhibition)
# measurement-setup: time post-induction: 4.5 h; library: site-saturation at positions 5, 18, 19, 20
experimental-endpoint: shrunken log2 fold change
# print the numeric value only

Use these answered entries as a reference point.
{"columns": ["sequence-entry", "shrunken log2 fold change"],
 "data": [
  ["RRIRWRPPRLPRPRPRPYYFPRP", -0.692],
  ["RRIRSRPPRLPRPRPRPCDTPRP", -0.227],
  ["RRIRFRPPRLPRPRPRPFHTPRP", -0.561]
]}

Sample RRIRHRPPRLPRPRPRPILRPRP ; shrunken log2 fold change observed: -0.178

Sample RRIRMRPPRLPRPRPRPTQYPRP ; shrunken log2 fold change observed: 0.248

Sample RRIRLRPPRLPRPRPRPWSTPRP ; shrunken log2 fold change observed: -0.137

###

# shrunken log2 fold change per entry
# Test system: Escherichia coli TOP10
# assay: shrunken log2 fold change of peptide-encoding DNA abundance (4.5 h post-induction vs induction); higher = less antimicrobial activity (less host growth inhibition)
# measurement-setup: time post-induction: 4.5 h; library: site-saturation at positions 5, 18, 19, 20
# print the numeric value only

{"columns": ["sequence-entry", "shrunken log2 fold change"],
 "data": [
  ["RRIRGRPPRLPRPRPRPLKCPRP", 0.303],
  ["RRIRVRPPRLPRPRPRPMCQPRP", -0.0733],
  ["RRIRPRPPRLPRPRPRPSFQPRP", 0.0876],
  ["RRIRFRPPRLPRPRPRPTPEPRP", 0.189]
]}

// sequence RRIRFRPPRLPRPRPRPKFHPRP , assay Escherichia coli TOP10, shrunken log2 fold change value: -0.42

// sequence RRIRLRPPRLPRPRPRPVWTPRP , assay Escherichia coli TOP10, shrunken log2 fold change value: 0.00633

// sequence RRIRRRPPRLPRPRPRPTAYPRP , assay Escherichia coli TOP10, shrunken log2 fold change value: 0.676

// sequence RRIRHRPPRLPRPRPRPIQAPRP , assay Escherichia coli TOP10, shrunken log2 fold change value: -0.0107

// sequence RRIRNRPPRLPRPRPRPMSAPRP , assay Escherichia coli TOP10, shrunken log2 fold change value: 0.0853

// sequence RRIRNRPPRLPRPRPRPWIHPRP , assay Escherichia coli TOP10, shrunken log2 fold change value: 0.0731

// sequence RRIRTRPPRLPRPRPRPFTPPRP , assay Escherichia coli TOP10, shrunken log2 fold change value: -0.0472

// sequence RRIRRRPPRLPRPRPRPAMLPRP , assay Escherichia coli TOP10, shrunken log2 fold change value: 1.02

// sequence RRIRSRPPRLPRPRPRPAFIPRP , assay Escherichia coli TOP10, shrunken log2 fold change value: -0.0885

// sequence RRIRPRPPRLPRPRPRPTKVPRP , assay Escherichia coli TOP10, shrunken log2 fold change value: -0.0777

// sequence RRIRARPPRLPRPRPRPVWLPRP , assay Escherichia coli TOP10, shrunken log2 fold change value: 0.399

###

# System: Escherichia coli TOP10
# assay: shrunken log2 fold change of peptide-encoding DNA abundance (4.5 h post-induction vs induction); higher = less antimicrobial activity (less host growth inhibition)
# measurement-setup: time post-induction: 4.5 h; library: site-saturation at positions 5, 18, 19, 20
Lab note: anything with shrunken log2 fold change at or over -0.002 counts as YES; the rest go in NO.

{"columns": ["sequence-entry", "assigned-label"],
 "data": [
  ["RRIRGRPPRLPRPRPRPHPLPRP", "YES"],
  ["RRIRVRPPRLPRPRPRPPKNPRP", "YES"]
]}

Q: Quick check: does RRIRVRPPRLPRPRPRPTCFPRP have shrunken log2 fold change greater than or equal to -0.002?
A: NO

Q: Quick check: does RRIRMRPPRLPRPRPRPYWQPRP have shrunken log2 fold change greater than or equal to -0.002?
A: NO

Q: Quick check: does RRIRRRPPRLPRPRPRPSTWPRP have shrunken log2 fold change greater than or equal to -0.002?
A: YES

Q: Quick check: does RRIRDRPPRLPRPRPRPRKWPRP have shrunken log2 fold change greater than or equal to -0.002?
A: NO

Q: Quick check: does RRIRKRPPRLPRPRPRPSLKPRP have shrunken log2 fold change greater than or equal to -0.002?
A: NO

###

# shrunken log2 fold change per entry
# Tested on: Escherichia coli TOP10
# assay: shrunken log2 fold change of peptide-encoding DNA abundance (4.5 h post-induction vs induction); higher = less antimicrobial activity (less host growth inhibition)
# measurement-setup: time post-induction: 4.5 h; library: site-saturation at positions 5, 18, 19, 20
# print the numeric value only

Use these answered entries as a reference point.
{"columns": ["sequence-entry", "recorded-value"],
 "data": [
  ["RRIRWRPPRLPRPRPRPDPGPRP", -0.041],
  ["RRIRARPPRLPRPRPRPYPEPRP", -0.181],
  ["RRIRMRPPRLPRPRPRPHVSPRP", -0.0138],
  ["RRIRHRPPRLPRPRPRPEYPPRP", 0.0664]
]}

Sample RRIRCRPPRLPRPRPRPHSQPRP ; shrunken log2 fold change observed: -0.0293

Sample RRIRVRPPRLPRPRPRPRQYPRP ; shrunken log2 fold change observed: 0.00898

Sample RRIRQRPPRLPRPRPRPCVMPRP ; shrunken log2 fold change observed: -0.149

Sample RRIRGRPPRLPRPRPRPDAMPRP ; shrunken log2 fold change observed: 2.4

###

# shrunken log2 fold change per entry
# Test system: Escherichia coli TOP10
# assay: shrunken log2 fold change of peptide-encoding DNA abundance (4.5 h post-induction vs induction); higher = less antimicrobial activity (less host growth inhibition)
# measurement-setup: time post-induction: 4.5 h; library: site-saturation at positions 5, 18, 19, 20

{"columns": ["sequence-entry", "target", "recorded-value"],
 "data": [
  ["RRIRERPPRLPRPRPRPITMPRP", "Escherichia coli TOP10", -0.408],
  ["RRIRSRPPRLPRPRPRPQHNPRP", "Escherichia coli TOP10", -0.628],
  ["RRIRQRPPRLPRPRPRPVINPRP", "Escherichia coli TOP10", -0.102],
  ["RRIRYRPPRLPRPRPRPAGFPRP", "Escherichia coli TOP10", -0.0806],
  ["RRIRERPPRLPRPRPRPPRQPRP", "Escherichia coli TOP10", 0.26]
]}

Sample RRIRVRPPRLPRPRPRPIWVPRP ; shrunken log2 fold change observed: 0.154

Sample RRIRVRPPRLPRPRPRPYNIPRP ; shrunken log2 fold change observed: -1.26

###

# System: Escherichia coli TOP10;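 further: peptides expressed intracellularly from a pBAD plasmid library in pooled LB shake-flask culture, induced with 0.3% L-arabinose, DNA abundance read by NGS, three biological replicates, DESeq2 with apeglm shrinkage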
# assay: shrunken log2 fold change of peptide-encoding DNA abundance (4.5 h post-induction vs induction); higher = less antimicrobial activity (less host growth inhibition)
# measurement-setup: time post-induction: 4.5 h; library: site-saturation at positions 5, 18, 19, 20
# shrunken log2 fold change per entry
# print the numeric value only

Use these answered entries as a reference point.
{"columns": ["sequence-entry", "shrunken log2 fold change"],
 "data": [
  ["RRIRFRPPRLPRPRPRPQHKPRP", -0.51],
  ["RRIRYRPPRLPRPRPRPCRFPRP", -0.241],
  ["RRIRPRPPRLPRPRPRPNIHPRP", -0.579],
  ["RRIRCRPPRLPRPRPRPDPWPRP", -0.0438],
  ["RRIRLRPPRLPRPRPRPITYPRP", -0.266],
  ["RRIRRRPPRLPRPRPRPMILPRP", 0.359],
  ["RRIRWRPPRLPRPRPRPALLPRP", 0.584],
  ["RRIRRRPPRLPRPRPRPYHHPRP", -0.471],
  ["RRIRWRPPRLPRPRPRPLHLPRP", -0.234],
  ["RRIRHRPPRLPRPRPRPNNTPRP", -0.931]
]}

Sample RRIRRRPPRLPRPRPRPARIPRP ; shrunken log2 fold change observed: 0.0165

Sample RRIRIRPPRLPRPRPRPQDSPRP ; shrunken log2 fold change observed: -0.269

Sample RRIRRRPPRLPRPRPRPEIWPRP ; shrunken log2 fold change observed: 0.621

Sample RRIRCRPPRLPRPRPRPKRTPRP ; shrunken log2 fold change observed: 0.642

Sample RRIRNRPPRLPRPRPRPALLPRP ; shrunken log2 fold change observed: 0.504

Sample RRIRNRPPRLPRPRPRPGTAPRP ; shrunken log2 fold change observed: -0.0363
